System: crabgrass, large (large crabgrass, Digitaria sanguinalis)
Method description: Test A pre-/postemergence: crabgrass, large
Type: in vivo
Reported conditions: Preemergence, 500 g ai/ha; 0 to 100 scale (0 no effect, 100 complete control)
Provide the recorded Plant response rating, Crabgrass, Large for the entries that follow.
Numbers only.

- Smiles representation: "CCc1nn(-c2ccc(F)cc2)nc1Cc1ccnc(C(F)(F)F)c1"
  Measurement name: "Plant response rating, Crabgrass, Large"
  Measured result: 100

Give Plant response rating, Crabgrass, Large for all compounds that follow.
1. Cc1nn(-c2ccc(F)c(F)c2)nc1Cc1ccnc(C(F)F)c1
2. CC(C)(C)c1nn(-c2ccc(F)cc2)nc1Cc1ccnc(C(F)(F)F)c1

Result:
1: 100; 2: 0

====

Test system: velvetleaf (Abutilon theophrasti)
Method description: Test A pre-/postemergence: velvetleaf
Assay type: in vivo
Reported conditions: Preemergence, 500 g ai/ha; 0 to 100 scale (0 no effect, 100 complete control)
Description: Seeds of barnyardgrass (Echinochloa crus-galli), crabgrass, large (large crabgrass, Digitaria sanguinalis), foxtail, giant (giant foxtail, Setaria faberii), morningglory (Ipomoea spp.), pigweed (Amaranthus retroflexus), velvetleaf (Abutilon theophrasti), wheat (Triticum aestivum), and corn (Zea mays) were planted into a blend of loam soil and sand and treated preemergence with a directed soil spray using test chemicals formulated in a non-phytotoxic solvent mixture which included a surfactant. […]
Measurement name: Plant response rating, Velvetleaf
Give bare numbers.

Below, 6 compounds whose answers are already recorded.
- Compound: "CCc1nn(-c2ccc(C(F)(F)F)cc2)nc1Oc1ccnc(C(F)(F)F)c1 [Compound 169]"
  Plant response rating, Velvetleaf: 90
- Compound: "Cc1nn(-c2ccc(F)cc2)nc1Oc1cc(C(F)(F)F)nn1C [Compound 126]"
  Plant response rating, Velvetleaf: 40
- Compound: "CON=C(c1cccc(C(F)(F)F)c1)c1nn(-c2ccnc(C(F)(F)F)c2)nc1C [Compound 140]"
  Plant response rating, Velvetleaf: 30
- Compound: "Cc1nn(-c2ccc(F)cc2)nc1Oc1cccc(C(F)(F)F)n1 [Compound 127]"
  Plant response rating, Velvetleaf: 0
- Compound: "Cc1nn(-c2ccc(F)cc2)nc1Cc1cccc(C(F)(F)F)c1 [Compound 157]"
  Plant response rating, Velvetleaf: 0
- Compound: "Cc1nn(-c2ccc(C(F)(F)F)cc2)nc1Oc1ccnc(C(F)(F)F)c1 [Compound 120]"
  Plant response rating, Velvetleaf: 70

Give Plant response rating, Velvetleaf for all compounds that follow.
1. CC(C)Oc1nn(-c2ccc(C(F)(F)F)cc2)nc1Cc1ccnc(C(F)(F)F)c1 [Compound 192]
2. COc1nn(-c2cccc(F)c2)nc1Cc1ccnc(C(F)(F)F)c1 [Compound 139]
3. CC(C)(C)c1nn(-c2ccc(F)cc2)nc1Cc1ccnc(C(F)(F)F)c1 [Compound 176]

Result:
1. 0
2. 90
3. 0

====

System: soybean (Glycine max)
Method description: Test C pre-/postemergence: soybean
Type: in vivo
Reported conditions: Preemergence, 31 g ai/ha; scale of 0 to 100, 0 is no effect, 100 is complete control
Measurement name: Plant response rating, Soybean
Give bare numbers.

Below, 4 compounds whose answers are already recorded.
- Compound: "Cc1nn(-c2ccc(F)cc2F)nc1Oc1ccnc(C(F)(F)F)c1 [Compound 146]"
  Plant response rating, Soybean: 10
- Compound: "CCc1nn(-c2ccc(F)cc2)nc1Cc1ccnc(C(F)(F)F)c1 [Compound 154]"
  Plant response rating, Soybean: 0
- Compound: "Cc1nn(-c2ccc(C(F)(F)F)cc2)nc1Oc1ccnc(C(F)(F)F)c1 [Compound 120]"
  Plant response rating, Soybean: 0
- Compound: "Cc1nn(-c2ccc(C(F)(F)F)cn2)nc1Cc1cccc(C(F)(F)F)c1 [Compound 106]"
  Plant response rating, Soybean: 0

Now consider the entry below.
Q: Tell us which Plant response rating, Soybean value is on record for FC(F)(F)COc1nn(-c2ccc(C(F)(F)F)cc2)nc1Cc1ccnc(C(F)(F)F)c1 [Compound 14]
Result: 0
